All figures here come from patent US20100086555A1.

- assayed_target: H5 HA A/HK/491/97 (on pseudotypes) (influenza A virus A/HK/491/97 (H5N1))
- method_notes: cell-based or functional assay
Some binders, each annotated with its measured Neutralization of HA-pseudotypes (IC90).
property_name: Neutralization of HA-pseudotypes (IC90) (µg/mL)

>  <binder>
FE43 (antibody, V domains shown) VH: QVHLVQSGAEVKKPGSSVRLSCSASGGPFSGFAISWLRQAPGQGLEWLGGISAVFGTATYAQKFQGRVTITADQFTSTSHMDLSRLTYDDTAVYYCARSGGYLPQNNWIDPWGQGTLVIVSS VL: DIVMTQTPLSLSVTPGQPASISCKSSQSLLHSDGKTYLYWYLQKPGQSPQLLIYEVSNRFSGVPDRFSGSGSGTDFTLKISRVEAEDVGVYYCMQNILLPLTFGGGTKVEIK

>  <property_name>
Neutralization of HA-pseudotypes (IC90)

>  <experimental_value>
0.053

$$$$
>  <binder>
FB139 (antibody, V domains shown) VH: QVQLVQSGAEVKKAGSSVKVSCQSSGVTFSMYAVSWVRQAPGQGLEWMGGIIPLFGTTTYAQKFEGRLTITADTSTNMAYLELRSLRSEDTAVYFCARAGTTVTRFNWFDPWGQGTLVTVSS VL: EVVLTQSPGTLSLSPGQRATLSCRASQSVSSSYLAWYQQKPGQAPRLLIYDASNRATGIPDRFSGSGSGTDFTLTISRLEPEDFAVYYCQQYGSSPYTFGQGTKLEIK

>  <property_name>
Neutralization of HA-pseudotypes (IC90)

>  <experimental_value>
0.019

$$$$
>  <binder>
FC6 (antibody, V domains shown) VH: QGQLVQSGAEVKKSGSSVKVSCKTSGGTFNSHAISWVRQAPGQGLEWIGGIIPMFGTTNYAQKLKGRIAITADQLPTTAYLELSSLRSEDTAVYYCARGQRYYYDRDGMDVWGQGTMVTVSS VL: EIVMTQTPLSLSVTPGQPASISCRSSQSLLHSDGKTYLYWYLQKPGQPPQLLISEVFNRFSGVPDRFSGSGSGTDFTLKISRVEAEDVGVYYCMQSLQLPLTFGGGTKVEIK

>  <property_name>
Neutralization of HA-pseudotypes (IC90)

>  <experimental_value>
0.081

$$$$
